Recorded measurements of pKi, one per entry
Target: delta-opioid receptor (DOR) (Rattus norvegicus)
Construct: Rat cortices were homogenized using 50 mM Tris, pH 7.4, 10 mM MgCl2-6H2O, 200 µM PMSF; from tissue; host or cells: rat cortex membranes
Sequence (P33533 whole entry): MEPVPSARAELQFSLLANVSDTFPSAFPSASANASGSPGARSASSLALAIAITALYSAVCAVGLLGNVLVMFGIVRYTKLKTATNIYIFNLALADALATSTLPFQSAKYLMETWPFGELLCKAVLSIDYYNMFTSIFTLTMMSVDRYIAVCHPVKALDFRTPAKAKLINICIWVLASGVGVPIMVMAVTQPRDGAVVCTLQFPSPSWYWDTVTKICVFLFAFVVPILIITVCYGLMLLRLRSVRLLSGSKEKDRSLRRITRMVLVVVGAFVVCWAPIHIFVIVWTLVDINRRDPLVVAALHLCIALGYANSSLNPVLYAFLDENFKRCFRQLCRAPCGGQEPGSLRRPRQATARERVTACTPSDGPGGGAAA
Test: DOR radioligand competition binding assay ([3H]-DPDPE)
Conditions: Delta screening results, first Ki column; unit not printed (apparently M); read-out: Ki (first column)
pKi: −log10 of the molar value.
PARAMETER_MEASURED: pKi

>>> experimental_result("CC(C)C[C@@H](CN1C(=N)NC[C@@H]1Cc1ccccc1)N1C[C@H](Cc2ccccc2)NC1=N [1968-9]")
5.01
>>> experimental_result("CC(C)C[C@@H](CN1C(=N)NC[C@@H]1Cc1ccc(O)cc1)N1C[C@H](Cc2ccc(O)cc2)NC1=N [1968-26]")
5.13
>>> experimental_result("Cc1cc(O)cc(C)c1C[C@@H](CN1C(=N)NC[C@@H]1Cc1ccc(O)cc1)N1C[C@H](Cc2ccc(O)cc2)NC1=N [1968-30]")
5.87
>>> experimental_result("Cc1cc(O)cc(C)c1C[C@H]1CNC(=N)N1C[C@H](CC(C)C)N1C[C@H](Cc2ccc(O)cc2)NC1=N [1968-58]")
5.94
>>> experimental_result("Cc1cc(O)cc(C)c1C[C@H]1CNC(=N)N1C[C@H](Cc1ccccc1)N1C[C@H](Cc2ccccc2)NC1=N [1968-49]")
6.21
>>> experimental_result("Cc1cc(O)cc(C)c1C[C@@H](CN1C(=N)NC[C@@H]1C)N1C[C@H](Cc2ccc(O)cc2)NC1=N [1968-16]")
6.21
>>> experimental_result("Cc1cc(O)cc(C)c1C[C@@H](CN1C(=N)NC[C@@H]1Cc1ccc(O)cc1)N1C[C@H](Cc2ccccc2)NC1=N [1968-29]")
6.01
>>> experimental_result("C[C@H]1CNC(=N)N1C[C@H](Cc1ccccc1)N1C[C@H](Cc2ccccc2)NC1=N [1968-33]")
4.78
>>> experimental_result("Cc1cc(O)cc(C)c1C[C@H]1CNC(=N)N1C[C@H](Cc1ccccc1)N1C[C@H](CC(C)C)NC1=N [1968-51]")
5.59
>>> experimental_result("C[C@H]1CNC(=N)N1C[C@H](Cc1ccc(O)cc1)N1C[C@H](Cc2ccccc2)NC1=N [1968-37]")
5.46
>>> experimental_result("Cc1cc(O)cc(C)c1C[C@H]1CNC(=N)N1C[C@H](Cc1c(C)cc(O)cc1C)N1C[C@H](Cc2ccccc2)NC1=N [1968-61]")
5.97
>>> experimental_result("CC(C)C[C@@H](CN1C(=N)NC[C@@H]1C)N1C[C@H](Cc2ccccc2)NC1=N [1968-41]")
5.14
>>> experimental_result("Cc1cc(O)cc(C)c1C[C@H]1CN([C@@H](Cc2c(C)cc(O)cc2C)CN2C(=N)NC[C@@H]2C)C(=N)N1 [1968-22]")
6.59
>>> experimental_result("Cc1cc(O)cc(C)c1C[C@H]1CN([C@@H](Cc2ccc(O)cc2)CN2C(=N)NC[C@@H]2Cc2ccccc2)C(=N)N1 [1968-4]")
6.14
>>> experimental_result("Cc1cc(O)cc(C)c1C[C@@H](CN1C(=N)NC[C@@H]1Cc1ccccc1)N1C[C@H](Cc2ccccc2)NC1=N [1968-67]")
6.08

###

Target: delta-opioid receptor (DOR) (Rattus norvegicus)
Construct: Rat cortices were homogenized using 50 mM Tris, pH 7.4, 10 mM MgCl2-6H2O, 200 µM PMSF; from tissue; host or cells: rat cortex membranes
Experiment: DOR radioligand competition binding assay ([3H]-DPDPE)
Conditions: Delta screening results, mean of two experiments; read-out: Ki
pKi: −log10 of the molar value.
PARAMETER_MEASURED: pKi

>>> experimental_result("Cc1cc(O)cc(C)c1C[C@H]1CNC(=N)N1C[C@H](Cc1c(C)cc(O)cc1C)N1C[C@H](CC(C)C)NC1=N [1968-63]")
5.62
>>> experimental_result("Cc1cc(O)cc(C)c1C[C@H]1CN([C@@H](Cc2ccc(O)cc2)CN2C(=N)NC[C@@H]2Cc2ccccc2)C(=N)N1 [1968-4]")
6.06
>>> experimental_result("Cc1cc(O)cc(C)c1C[C@H]1CNC(=N)N1C[C@H](Cc1c(C)cc(O)cc1C)N1C[C@H](Cc2ccc(O)cc2)NC1=N [1968-62]")
5.89
>>> experimental_result("CC(C)C[C@@H](CN1C(=N)NC[C@@H]1Cc1ccccc1)N1C[C@H](Cc2ccccc2)NC1=N [1968-9]")
5.11
>>> experimental_result("Cc1cc(O)cc(C)c1C[C@@H](CN1C(=N)NC[C@@H]1Cc1ccc(O)cc1)N1C[C@H](Cc2ccccc2)NC1=N [1968-29]")
6.08
>>> experimental_result("Cc1cc(O)cc(C)c1C[C@H]1CNC(=N)N1C[C@H](Cc1ccc(O)cc1)N1C[C@H](Cc2ccc(O)cc2)NC1=N [1968-54]")
5.48
>>> experimental_result("CC(C)C[C@H]1CN([C@@H](Cc2ccccc2)CN2C(=N)NC[C@@H]2Cc2ccccc2)C(=N)N1 [1968-3]")
5.18

###

Target: mu-opioid receptor (MOR) (Rattus norvegicus, UniProt P33535)
Construct: Rat cortices were homogenized using 50 mM Tris, pH 7.4, and centrifuged at 16,500 rpm for 10 min; from tissue; host or cells: rat cortex membranes
Sequence (P33535 whole entry): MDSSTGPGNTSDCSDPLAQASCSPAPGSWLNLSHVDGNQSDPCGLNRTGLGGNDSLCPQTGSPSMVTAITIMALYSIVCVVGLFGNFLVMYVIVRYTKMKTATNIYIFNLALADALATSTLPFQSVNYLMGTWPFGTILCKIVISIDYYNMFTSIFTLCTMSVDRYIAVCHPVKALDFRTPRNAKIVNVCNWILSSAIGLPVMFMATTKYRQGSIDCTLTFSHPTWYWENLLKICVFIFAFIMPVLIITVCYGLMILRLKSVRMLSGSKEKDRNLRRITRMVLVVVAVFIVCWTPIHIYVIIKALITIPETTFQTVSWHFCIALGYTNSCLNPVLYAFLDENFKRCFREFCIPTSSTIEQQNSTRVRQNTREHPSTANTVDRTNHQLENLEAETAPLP
Assay: MOR radioligand competition binding assay ([3H]-DAMGO)
Details: Mu screening results, experiment 1; unit inferred; read-out: Ki (Exp 1)
PARAMETER_MEASURED: Ki (nM)

>>> experimental_result("N=C1NC[C@H](Cc2ccccc2)N1C[C@H](Cc1ccccc1)N1C[C@H](Cc2ccccc2)NC1=N")
2370
>>> experimental_result("Cc1cc(O)cc(C)c1C[C@@H](CN1C(=N)NC[C@@H]1Cc1ccc(O)cc1)N1C[C@H](Cc2ccccc2)NC1=N")
117
>>> experimental_result("Cc1cc(O)cc(C)c1C[C@H]1CNC(=N)N1C[C@H](CC(C)C)N1C[C@H](CC(C)C)NC1=N")
166
>>> experimental_result("Cc1cc(O)cc(C)c1C[C@H]1CN([C@@H](CC(C)C)CN2C(=N)NC[C@@H]2Cc2c(C)cc(O)cc2C)C(=N)N1")
66.4
>>> experimental_result("Cc1cc(O)cc(C)c1C[C@H]1CNC(=N)N1C[C@H](Cc1ccc(O)cc1)N1C[C@H](CC(C)C)NC1=N")
58
>>> experimental_result("N=C1NC[C@H](Cc2ccc(O)cc2)N1C[C@H](Cc1ccc(O)cc1)N1C[C@H](Cc2ccc(O)cc2)NC1=N")
230
>>> experimental_result("Cc1cc(O)cc(C)c1C[C@H]1CNC(=N)N1C[C@H](Cc1c(C)cc(O)cc1C)N1C[C@H](Cc2ccccc2)NC1=N")
40.3

###

Molecular target: mu-opioid receptor (MOR) (Rattus norvegicus, UniProt P33535)
Construct: Rat cortices were homogenized using 50 mM Tris, pH 7.4, and centrifuged at 16,500 rpm for 10 min; from tissue; host or cells: rat cortex membranes
Assay: MOR radioligand competition binding assay ([3H]-DAMGO)
Conditions: Mu screening results, mean of Exp 1 and Exp 2; unit inferred; read-out: MEAN (Ki)
pKi: −log10 of the molar value.
Recorded measurements of pKi, one per entry
PARAMETER_MEASURED: pKi

>>> experimental_result("Cc1cc(O)cc(C)c1C[C@H]1CN([C@@H](CC(C)C)CN2C(=N)NC[C@@H]2C)C(=N)N1")
6.70
>>> experimental_result("Cc1cc(O)cc(C)c1C[C@H]1CN([C@@H](Cc2ccccc2)CN2C(=N)NC[C@@H]2Cc2ccc(O)cc2)C(=N)N1")
7.11
>>> experimental_result("Cc1cc(O)cc(C)c1C[C@H]1CNC(=N)N1C[C@H](Cc1ccc(O)cc1)N1C[C@H](Cc2ccc(O)cc2)NC1=N")
7.19
>>> experimental_result("Cc1cc(O)cc(C)c1C[C@H]1CN([C@@H](Cc2ccccc2)CN2C(=N)NC[C@@H]2Cc2c(C)cc(O)cc2C)C(=N)N1")
7.03
>>> experimental_result("Cc1cc(O)cc(C)c1C[C@H]1CN([C@@H](CC(C)C)CN2C(=N)NC[C@@H]2Cc2ccccc2)C(=N)N1")
7.18
>>> experimental_result("Cc1cc(O)cc(C)c1C[C@@H](CN1C(=N)NC[C@@H]1Cc1ccc(O)cc1)N1C[C@H](Cc2ccccc2)NC1=N")
6.94
>>> experimental_result("N=C1NC[C@H](Cc2ccccc2)N1C[C@H](Cc1ccc(O)cc1)N1C[C@H](Cc2ccc(O)cc2)NC1=N")
7.12

###

Target: mu-opioid receptor (MOR) (Rattus norvegicus)
Construct: Rat cortices were homogenized using 50 mM Tris, pH 7.4, and centrifuged at 16,500 rpm for 10 min; from tissue; host or cells: rat cortex membranes
Assay: MOR radioligand competition binding assay ([3H]-DAMGO)
Conditions: Mu screening results, mean of two experiments; read-out: Ki
The class of a record is decided solely by its measured Ki; consult low class = under 0.1 µM, middle class = from 0.1 µM up to 0.8 µM, high class = 0.8 µM and over

>>> discrete_label("CC(C)C[C@@H](CN1C(=N)NC[C@@H]1Cc1ccc(O)cc1)N1C[C@H](Cc2ccc(O)cc2)NC1=N [1968-26]")
"middle class"
>>> discrete_label("Cc1cc(O)cc(C)c1C[C@H]1CN([C@@H](CC(C)C)CN2C(=N)NC[C@@H]2Cc2ccc(O)cc2)C(=N)N1 [1968-28]")
"middle class"
>>> discrete_label("Cc1cc(O)cc(C)c1C[C@@H](CN1C(=N)NC[C@@H]1Cc1ccc(O)cc1)N1C[C@H](CC(C)C)NC1=N [1968-31]")
"middle class"
>>> discrete_label("Cc1cc(O)cc(C)c1C[C@@H](CN1C(=N)NC[C@@H]1Cc1ccccc1)N1C[C@H](Cc2ccccc2)NC1=N [1968-67]")
"middle class"
>>> discrete_label("N=C1NC[C@H](Cc2ccc(O)cc2)N1C[C@H](Cc1ccc(O)cc1)N1C[C@H](Cc2ccccc2)NC1=N [1968-21]")
"middle class"
>>> discrete_label("CC(C)C[C@@H](CN1C(=N)NC[C@@H]1C)N1C[C@H](Cc2ccc(O)cc2)NC1=N [1968-42]")
"high class"
>>> discrete_label("Cc1cc(O)cc(C)c1C[C@H]1CN([C@@H](Cc2ccc(O)cc2)CN2C(=N)NC[C@@H]2Cc2c(C)cc(O)cc2C)C(=N)N1 [1968-56]")
"low class"
>>> discrete_label("Cc1cc(O)cc(C)c1C[C@H]1CN([C@@H](Cc2ccccc2)CN2C(=N)NC[C@@H]2Cc2c(C)cc(O)cc2C)C(=N)N1 [1968-52]")
"low class"
>>> discrete_label("N=C1NC[C@H](Cc2ccccc2)N1C[C@H](Cc1ccc(O)cc1)N1C[C@H](Cc2ccc(O)cc2)NC1=N [1968-6]")
"low class"
>>> discrete_label("N=C1NC[C@H](Cc2ccc(O)cc2)N1C[C@H](Cc1ccccc1)N1C[C@H](Cc2ccccc2)NC1=N [1968-17]")
"high class"
>>> discrete_label("Cc1cc(O)cc(C)c1C[C@@H](CN1C(=N)NC[C@@H]1Cc1ccc(O)cc1)N1C[C@H](Cc2ccc(O)cc2)NC1=N [1968-30]")
"middle class"
>>> discrete_label("Cc1cc(O)cc(C)c1C[C@H]1CNC(=N)N1C[C@H](CC(C)C)N1C[C@H](Cc2ccccc2)NC1=N [1968-57]")
"low class"
>>> discrete_label("CC(C)C[C@H]1CN([C@@H](CC(C)C)CN2C(=N)NC[C@@H]2Cc2ccc(O)cc2)C(=N)N1 [1968-27]")
"high class"
>>> discrete_label("Cc1cc(O)cc(C)c1C[C@@H](CN1C(=N)NC[C@@H]1Cc1ccccc1)N1C[C@H](CC(C)C)NC1=N [1968-15]")
"middle class"
>>> discrete_label("CC(C)C[C@@H](CN1C(=N)NC[C@@H]1C)N1C[C@H](Cc2ccccc2)NC1=N [1968-41]")
"high class"
